- targetOrSystem: TetR (class B, Tn10) (UniProt P04483)
- Sequence (P04483 whole entry): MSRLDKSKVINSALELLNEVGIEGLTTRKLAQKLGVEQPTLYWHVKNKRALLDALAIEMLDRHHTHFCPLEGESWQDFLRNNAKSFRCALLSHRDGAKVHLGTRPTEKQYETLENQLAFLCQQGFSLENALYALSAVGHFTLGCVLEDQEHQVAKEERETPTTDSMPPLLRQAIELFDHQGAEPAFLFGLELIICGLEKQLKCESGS
- assayNotes: TetR repression strength (sort-seq, GFP reporter) (relative to tetO2 = 1); higher = stronger repression
- experimentalConditions: E. coli
The full ranking holds about 18,000 sequences; the median of “TetR repression strength (sort-seq, GFP reporter)” is about 0.23, and the highest 2% start at about 0.68. The sample holds the highest values, similar sequences and a random draw of the others, so the mix is not that of the screen.
Values of TetR repression strength greater than or equal to 0.4 map to y; values below map to n.

Enquiry: Check the entry TCCCGGGAAGTGTGTGAGA : does TetR repression strength equal or exceed 0.4?
Return: n

Enquiry: Check the entry TCCCATCGAGTCGGTGAGA : does TetR repression strength equal or exceed 0.4?
Return: n

Enquiry: Check the entry TCCCGGGCAGTGAAGGAGA : does TetR repression strength equal or exceed 0.4?
Return: n

----------
Reported TetR repression strength values for a set of sequences
- targetOrSystem: TetR (class B, Tn10)
- assayNotes: TetR repression strength (sort-seq, GFP reporter) (relative to tetO2 = 1); higher = stronger repression
- experimentalConditions: E. coli
Whole data set: some 18,000 sequences, median “TetR repression strength (sort-seq, GFP reporter)” near 0.23, cut for the highest 2% near 0.68. This is one part of a sample in which the highest values are shown more often than they occur.
Enter a number only.

INSERT INTO measurements (sequencechain, valuereported) VALUES
  ('TCCCACTGAGTCAGAGAGA', 0.279),
  ('TCCCATGGAGTACTGGAGA', 0.0311),
  ('TCCCACTCAGTGAGGGAGA', 0.255),
  ('TCCCGCAAAGTGAATGAGA', 0.207);

Enquiry: Fill in reported TetR repression strength for this entry: TCCCGATCAGTGAGCGAGA
Return: 0.544

Enquiry: Fill in reported TetR repression strength for this entry: TCCCAAACAGTTTGTGAGA
Return: 0.0981

Enquiry: Fill in reported TetR repression strength for this entry: TCCCTCGTAGTCTGCGAGA
Return: 0.447

----------
- targetOrSystem: TetR (class B, Tn10)
- assayNotes: TetR repression strength (sort-seq, GFP reporter) (relative to tetO2 = 1); higher = stronger repression
- experimentalConditions: E. coli
Whole data set: some 18,000 sequences, median “TetR repression strength (sort-seq, GFP reporter)” near 0.23, cut for the highest 2% near 0.68. The entries come from a sample that favours the highest values as a whole.
measurementLabel: TetR repression strength
Enter a number only.

Answered cases to consult:
INSERT INTO assay_data (sequencechain, measurementlabel, valuereported) VALUES
  ('TCCCCGCGAGTAGGAGAGA', 'TetR repression strength', 0.405),
  ('TCCCTAGGAGTAGGAGAGA', 'TetR repression strength', 0.268),
  ('TCCCGGATAGTATGAGAGA', 'TetR repression strength', 0.24);

Enquiry: Fill in reported TetR repression strength for this entry: TCCCTGCAAGTACCTGAGA
Return: 0.308

Enquiry: Fill in reported TetR repression strength for this entry: TCCCGGTTAGTAATTGAGA
Return: 0.345

Enquiry: Fill in reported TetR repression strength for this entry: TCCCAGTGAGTGCGCGAGA
Return: 0.286

----------
Reported TetR repression strength values for a set of sequences
- targetOrSystem: TetR (class B, Tn10) (UniProt P04483)
- assayNotes: TetR repression strength (sort-seq, GFP reporter) (relative to tetO2 = 1); higher = stronger repression
- experimentalConditions: E. coli
The full ranking holds about 18,000 sequences; the median of “TetR repression strength (sort-seq, GFP reporter)” is about 0.23, and the highest 2% start at about 0.68. The sample as a whole holds a higher share of the highest values than the screen did.
Enter a number only.

INSERT INTO assay_data (sequencechain, valuereported) VALUES
  ('TCCCGGGAAGTAGGCGAGA', 0.849),
  ('TCCCAGGGAGTTGACGAGA', 0.0614),
  ('TCCCGGTAAGTAGGAGAGA', 0.229),
  ('TCCCAGGGAGTAGTTGAGA', 0.0889),
  ('TCCCGTCTAGTGTTAGAGA', 0.851),
  ('TCCCGGGCAGTTCAAGAGA', 0.417),
  ('TCCCGGGCAGTACAAGAGA', 1.05),
  ('TCCCCTTGAGTGTTTGAGA', 0.302);

Enquiry: Print TetR (class B, Tn10) (UniProt P04483) TetR repression strength for TCCCGTTTAGTGTTAGAGA .
Return: 0.222

Enquiry: Print TetR (class B, Tn10) (UniProt P04483) TetR repression strength for TCCCAAGTAGTCACGGAGA .
Return: 0.295

----------
- targetOrSystem: TetR (class B, Tn10) (UniProt P04483)
- assayNotes: TetR repression strength (sort-seq, GFP reporter) (relative to tetO2 = 1); higher = stronger repression
- experimentalConditions: E. coli
Whole data set: some 18,000 sequences, median “TetR repression strength (sort-seq, GFP reporter)” near 0.23, cut for the highest 2% near 0.68. The sample as a whole holds a higher share of the highest values than the screen did.
Categorized via TetR repression strength: 0 = under 0.3, 1 = from 0.3 up to 0.7, 2 = 0.7 and over

INSERT INTO assay_data (sequencechain, assignedcategory) VALUES
  ('TCCCCTATAGTGCTAGAGA', 0);

Enquiry: Band for TCCCCTGTAGTGATAGAGA ?
Return: 1

Enquiry: Band for TCCCACTCAGTGAGAGAGA ?
Return: 1

Enquiry: Band for TCCCAATCAGTGATAGAGA ?
Return: 2

Enquiry: Band for TCCCAATCAGTGACAGAGA ?
Return: 2

Enquiry: Band for TCCCTTAGAGTGGTCGAGA ?
Return: 0

Enquiry: Band for TCCCCTCAAGTTGGCGAGA ?
Return: 0

----------
- targetOrSystem: TetR (class B, Tn10)
- assayNotes: TetR repression strength (sort-seq, GFP reporter) (relative to tetO2 = 1); higher = stronger repression
- experimentalConditions: E. coli
In all, about 18,000 sequences were measured (“TetR repression strength (sort-seq, GFP reporter)”: median about 0.23, highest 2% from about 0.68 on). This is one part of a sample in which the highest values are shown more often than they occur.
measurementLabel: TetR repression strength
Enter a number only.

Answered cases to consult:
INSERT INTO results (sequencechain, targetorsystem, valuereported) VALUES
  ('TCCCCGTAAGTGCAGGAGA', 'TetR (class B, Tn10)', 0.21),
  ('TCCCTGGTAGTGACAGAGA', 'TetR (class B, Tn10)', 1.03),
  ('TCCCTTGGAGTTGAGGAGA', 'TetR (class B, Tn10)', 0.465),
  ('TCCCTACAAGTGCCGGAGA', 'TetR (class B, Tn10)', 0.202);

Enquiry: Print TetR (class B, Tn10) TetR repression strength for TCCCTTCCAGTTCTTGAGA .
Return: 0.472

Enquiry: Print TetR (class B, Tn10) TetR repression strength for TCCCTAGTAGTGGCTGAGA .
Return: 0.905

Enquiry: Print TetR (class B, Tn10) TetR repression strength for TCCCTTGAAGTATCGGAGA .
Return: 0.146

Enquiry: Print TetR (class B, Tn10) TetR repression strength for TCCCGTTGAGTATATGAGA .
Return: 0.229

Enquiry: Print TetR (class B, Tn10) TetR repression strength for TCCCTTTAAGTTCTCGAGA .
Return: 0.271

Enquiry: Print TetR (class B, Tn10) TetR repression strength for TCCCTTTGAGTGCATGAGA .
Return: 0.403

Enquiry: Print TetR (class B, Tn10) TetR repression strength for TCCCAGGGAGTAGCGGAGA .
Return: 0.159

Enquiry: Print TetR (class B, Tn10) TetR repression strength for TCCCGCGTAGTCCGCGAGA .
Return: 0.172

Enquiry: Print TetR (class B, Tn10) TetR repression strength for TCCCTAAAAGTGGGAGAGA .
Return: 0.203

Enquiry: Print TetR (class B, Tn10) TetR repression strength for TCCCTACTAGTTACAGAGA .
Return: 0.0592

Enquiry: Print TetR (class B, Tn10) TetR repression strength for TCCCAGCGAGTGCAAGAGA .
Return: 0.364

----------
Reported TetR repression strength values for a set of sequences
- targetOrSystem: TetR (class B, Tn10)
- assayNotes: TetR repression strength (sort-seq, GFP reporter) (relative to tetO2 = 1); higher = stronger repression
- experimentalConditions: E. coli
Whole data set: some 18,000 sequences, median “TetR repression strength (sort-seq, GFP reporter)” near 0.23, cut for the highest 2% near 0.68. Only a selection was taken, and the highest values are over-represented in it overall.
Enter a number only.

INSERT INTO results (sequencechain, targetorsystem, valuereported) VALUES
  ('TCCCGCCAAGTCCCGGAGA', 'TetR (class B, Tn10)', 1.1),
  ('TCCCTGCCAGTCTAGGAGA', 'TetR (class B, Tn10)', 0.415),
  ('TCCCAGTAAGTCAGAGAGA', 'TetR (class B, Tn10)', 0.066);

Enquiry: Fill in reported TetR repression strength for this entry: TCCCGGGCAGTCGTGGAGA
Return: 0.285
